B1: MLL5 (parent)
chain: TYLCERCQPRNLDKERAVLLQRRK

Variants of: B1
assay_overview: protein stability index of a GFP-peptide fusion (GPS, HEK-293T) (PSI 1-6); higher = more stable;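 also: lentivirally expressed fusions sorted by FACS into six bins by GFP to DsRed ratio, PSI derived from sequencing read proportions per bin multiplied by bin number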
setup_conditions: c terminus: a fixed tail appended
Parameter threshold = 2. Response is Yes when protein stability index meets or exceeds it, else No.

Q) Could you tell me if the measured protein stability index of Q8C reaches 2 or more?
A) No

Q) Would you mind doing C7K as well?
A) Yes

Q) Would you mind doing L19N as well?
A) Yes

Q) Would you mind doing C4R as well?
A) Yes

Q) Would you mind doing E5K as well?
A) No

Q) Would you mind doing E15F as well?
A) Yes

Q) Would you mind doing R6Y as well?
A) Yes

Q) Would you mind doing R22C as well?
A) Yes

Q) Would you mind doing R16W as well?
A) No

Q) Would you mind doing R10C as well?
A) Yes

Q) Would you mind doing T1N as well?
A) Yes

Q) Would you mind doing Q8D as well?
A) Yes

Q) Would you mind doing R10P as well?
A) Yes

Q) Would you mind doing N11L as well?
A) Yes

Q) Would you mind doing K24H as well?
A) Yes

Q) Would you mind doing N11S as well?
A) Yes

Q) Would you mind doing R16C as well?
A) No

Q) Would you mind doing K24Q as well?
A) Yes

Q) Would you mind doing L20D as well?
A) Yes

Q) Would you mind doing R10V as well?
A) Yes

Q) Would you mind doing K14H as well?
A) No

Q) Would you mind doing Q8I as well?
A) No

Q) Would you mind doing C7L as well?
A) Yes

Q) Would you mind doing E15Q as well?
A) Yes

Q) Would you mind doing K24Y as well?
A) No

Q) Would you mind doing N11R as well?
A) Yes

Q) Would you mind doing L3K as well?
A) Yes

Q) Would you mind doing E5W as well?
A) Yes
